Below is a list of entries, each paired with its recorded IC50 value.
- TESTED_SYSTEM: AHR (UniProt P35869)
- Construct: IC50
- PROTOCOL_SUMMARY: DRE-Luciferase Reporter Assay (Alternate Method) (Example 1B)
- Format: cell-based, murine or human
- CONDITION_CONTEXT: cell line and AHR activating ligand not specified

Solved cases below.
CN(C)c1cnn2c(NCCc3c[nH]c4ccccc34)cc(-c3cncc(F)c3)nc12	< 0.5 µM
CN(C)c1cc(NCCc2c[nH]c3ccccc23)nc(-c2cncc(F)c2)n1	< 0.5 µM

For the next question, use this molecule.
Query: Any idea what its IC50 is? The molecule is OCc1cnn2c(NC3CCc4[nH]c5ccccc5c4C3)nc(-c3cncc(F)c3)nc12 (stereo not drawn)
Reply: < 0.5 µM

Data provenance: patent US11358969B2
